# system-name: Dihydroorotate dehydrogenase (quinone), mitochondrial (Homo sapiens, UniProt Q02127)
# Sequence (Q02127 whole entry): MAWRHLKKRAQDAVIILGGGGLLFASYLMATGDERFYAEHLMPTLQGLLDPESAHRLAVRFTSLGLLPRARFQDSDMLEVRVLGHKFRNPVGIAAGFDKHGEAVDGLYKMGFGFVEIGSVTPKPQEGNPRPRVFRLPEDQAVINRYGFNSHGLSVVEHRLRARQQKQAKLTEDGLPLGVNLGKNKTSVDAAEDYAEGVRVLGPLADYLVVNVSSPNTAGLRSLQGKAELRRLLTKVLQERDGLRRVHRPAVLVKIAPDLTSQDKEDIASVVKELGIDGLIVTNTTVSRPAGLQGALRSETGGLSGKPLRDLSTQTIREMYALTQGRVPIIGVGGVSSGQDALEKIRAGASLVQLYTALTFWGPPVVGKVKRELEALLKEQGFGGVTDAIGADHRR
assay-readout: IC50

Consider the molecule "C=C(C)c1cn(-c2ccccc2F)c(=O)c2cc(F)c(-n3nc(CO)n(CC)c3=O)cc12" and give its measured IC50.
< 169 pM
